Numbers sourced from patent US20180008587A1.

study-system: F876L mutant Androgen Receptor (AR-F876L) (Homo sapiens, UniProt P10275, F877L)
Construct: expressed in transfected cells; host or cells: LNCaP (LNCaP F876L)
Sequence (P10275 whole entry F877L): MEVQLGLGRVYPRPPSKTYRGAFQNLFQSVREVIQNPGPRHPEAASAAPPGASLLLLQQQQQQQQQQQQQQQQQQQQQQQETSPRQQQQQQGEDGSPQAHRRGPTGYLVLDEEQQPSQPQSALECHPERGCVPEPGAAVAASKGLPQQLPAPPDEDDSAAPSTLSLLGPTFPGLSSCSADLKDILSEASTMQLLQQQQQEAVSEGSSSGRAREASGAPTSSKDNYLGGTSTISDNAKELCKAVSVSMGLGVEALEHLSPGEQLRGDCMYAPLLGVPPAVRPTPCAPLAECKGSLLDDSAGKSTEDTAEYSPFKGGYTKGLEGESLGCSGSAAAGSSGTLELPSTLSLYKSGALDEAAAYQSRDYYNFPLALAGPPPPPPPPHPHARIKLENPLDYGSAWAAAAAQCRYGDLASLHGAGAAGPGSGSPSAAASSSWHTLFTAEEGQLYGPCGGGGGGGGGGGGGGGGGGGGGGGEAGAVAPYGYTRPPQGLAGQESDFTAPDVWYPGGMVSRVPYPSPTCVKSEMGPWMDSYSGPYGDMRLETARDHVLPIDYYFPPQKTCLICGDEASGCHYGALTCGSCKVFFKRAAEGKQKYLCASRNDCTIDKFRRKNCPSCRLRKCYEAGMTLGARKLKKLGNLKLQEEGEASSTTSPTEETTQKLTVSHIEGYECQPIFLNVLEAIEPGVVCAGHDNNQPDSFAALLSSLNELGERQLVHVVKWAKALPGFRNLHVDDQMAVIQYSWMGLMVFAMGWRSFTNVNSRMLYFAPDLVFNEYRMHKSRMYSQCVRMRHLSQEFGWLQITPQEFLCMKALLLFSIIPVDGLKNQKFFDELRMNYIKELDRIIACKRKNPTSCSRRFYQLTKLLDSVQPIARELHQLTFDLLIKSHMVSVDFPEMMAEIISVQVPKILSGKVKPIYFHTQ
experiment-notes: LNCaP-AR-F876L AG reporter assay (ARE firefly luciferase, agonist mode)
Format: cell-based
condition-summary: agonist mode; −Log10(EC50 [Molar]); read-out: LNCaP-AR-F876L AG pEC50 (converted)
For each of the compounds below, state its EC50.

Field EC50 (entry Cc1cc(N2C(=O)C3(CCC3)N(c3ccc(C(=O)Nc4cncc(F)c4)c(F)c3)C2=S)cnc1C#N [Cpd 113] ) reads > 15.1 µM

Field EC50 (entry N#Cc1ncc(N2C(=O)C3(CCC3)N(c3cccc(F)c3)C2=S)cc1C(F)(F)F [Cpd 90] ) reads > 15.1 µM

Field EC50 (entry N#Cc1ncc(N2C(=O)C3(CCC3)N(c3cccc(OC(F)(F)F)c3)C2=S)cc1C(F)(F)F [Cpd 97] ) reads > 15.1 µM

Field EC50 (entry CN1CCC(Oc2ccc(N3C(=S)N(c4cnc(C#N)c(C(F)(F)F)c4)C(=O)C34CCC4)c(F)c2)CC1 [Cpd 49] ) reads > 15.1 µM

Field EC50 (entry N#Cc1ncc(N2C(=O)C3(CCC3)N(c3ccc(Oc4ccccc4)cc3)C2=S)cc1C(F)(F)F [Cpd 99] ) reads > 15.1 µM

Field EC50 (entry N#Cc1ncc(N2C(=O)C3(CCC3)N(c3ccc(C(=O)NCC4CCCC4)c(F)c3)C2=S)cc1C(F)(F)F [Cpd 21] ) reads > 15.1 µM

Field EC50 (entry CN1CCN(CCNC(=O)c2ccc(N3C(=S)N(c4cnc(C#N)c(C(F)(F)F)c4)C(=O)C34CCC4)cc2F)CC1 [Cpd 121] ) reads > 15.1 µM

Field EC50 (entry N#Cc1ncc(N2C(=O)C3(CCC3)N(c3ccc(OCCN4CCNCC4)c(F)c3)C2=S)cc1C(F)(F)F [Cpd 105] ) reads > 15.1 µM

Field EC50 (entry N#Cc1ncc(N2C(=O)C3(CCC3)N(c3ccc(C(=O)NCCN4CCOCC4)c(F)c3)C2=S)cc1C(F)(F)F [Cpd 22] ) reads > 15.1 µM

Field EC50 (entry Cc1cc(N2C(=O)C3(CCC3)N(c3ccc(OC4CCN(C)CC4)c(F)c3)C2=S)cnc1C#N [Cpd 116] ) reads > 15.1 µM

Field EC50 (entry N#Cc1ncc(N2C(=O)C3(CCC3)N(c3ccc(C(=O)NCCc4ccncc4)c(F)c3)C2=S)cc1C(F)(F)F [Cpd 14] ) reads > 15.1 µM

Field EC50 (entry CN1CCN(CCCNC(=O)c2ccc(N3C(=S)N(c4cnc(C#N)c(C(F)(F)F)c4)C(=O)C34CCC4)cc2F)CC1 [Cpd 108] ) reads > 15.1 µM

Field EC50 (entry CS(=O)(=O)N1CCC(Oc2ccc(N3C(=S)N(c4cnc(C#N)c(C(F)(F)F)c4)C(=O)C34CCC4)cc2)CC1 [Cpd 122] ) reads > 15.1 µM

Field EC50 (entry N#Cc1ncc(N2C(=O)C3(CCC3)N(c3ccc(C(=O)N4CCCC4)c(F)c3)C2=S)cc1C(F)(F)F [Cpd 52] ) reads > 15.1 µM

Field EC50 (entry N#Cc1ncc(N2C(=O)C3(CCC3)N(c3ccc(O)cc3F)C2=S)cc1C(F)(F)F [Cpd 47] ) reads > 15.1 µM
